- targetDesc: CDK1/Cyclin B1 (Homo sapiens)
- Sequence (P06493 whole entry): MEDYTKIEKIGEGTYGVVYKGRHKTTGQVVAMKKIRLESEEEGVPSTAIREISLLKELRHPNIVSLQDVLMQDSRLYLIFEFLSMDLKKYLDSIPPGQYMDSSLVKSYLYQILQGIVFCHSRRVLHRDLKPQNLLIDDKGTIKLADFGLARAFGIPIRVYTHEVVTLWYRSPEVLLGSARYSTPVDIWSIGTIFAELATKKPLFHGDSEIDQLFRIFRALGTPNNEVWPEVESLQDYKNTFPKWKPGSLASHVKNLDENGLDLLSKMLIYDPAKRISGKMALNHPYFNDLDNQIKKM
- Sequence (P14635 whole entry partner): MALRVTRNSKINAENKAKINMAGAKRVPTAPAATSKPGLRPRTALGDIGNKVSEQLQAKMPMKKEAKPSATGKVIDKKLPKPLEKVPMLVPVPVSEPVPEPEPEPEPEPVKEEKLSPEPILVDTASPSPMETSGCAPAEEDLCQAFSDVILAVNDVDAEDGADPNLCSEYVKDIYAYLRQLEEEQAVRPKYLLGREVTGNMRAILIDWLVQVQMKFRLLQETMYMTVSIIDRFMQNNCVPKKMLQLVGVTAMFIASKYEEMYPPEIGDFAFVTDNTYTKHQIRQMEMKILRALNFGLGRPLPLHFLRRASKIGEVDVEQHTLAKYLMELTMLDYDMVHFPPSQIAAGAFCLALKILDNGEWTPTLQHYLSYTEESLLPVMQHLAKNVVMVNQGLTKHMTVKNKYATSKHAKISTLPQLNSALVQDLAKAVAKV
- measurementDescription: CDK1/Cyclin B1 Biochemical Assay (TR-FRET), 0.015 mM ATP
- appliedConditions: 0.15 μM Rb (Ser780)-biotin substrate, pH7.0, 60 min preincubation, 120 min reaction, room temperature
Label Criterion met when IC50 < 0.07 µM; otherwise Criterion not met.

{"compound": "[2H]C([2H])([2H])N1c2c(F)cc(Nc3cc([C@@H]4CC[C@H](OC(=O)NC5(C)CC5)C4)[nH]n3)cc2CS1(=O)=O (single isomer, unassigned) [Example 291b]", "discreteLabel": "Criterion met"}
{"compound": "CC1NS(=O)(=O)c2ccc(Nc3cc([C@@H]4CC[C@H](OC(=O)NC5(C)CC5)C4)[nH]n3)cc21 (single isomer, unassigned) [Example 322d]", "discreteLabel": "Criterion met"}
{"compound": "CC1(NC(=O)O[C@H]2CC[C@@H](c3cc(Nc4ccc5c(c4F)CNS5(=O)=O)n[nH]3)C2)CCOC1 (single isomer, unassigned) [Example 162c]", "discreteLabel": "Criterion not met"}
{"compound": "COCC1(NC(=O)O[C@H]2CC[C@@H](c3cc(Nc4ccc5c(c4F)CNS5(=O)=O)n[nH]3)C2)CC1 (single isomer, unassigned) [Example 158a]", "discreteLabel": "Criterion not met"}
{"compound": "CN1c2ccc(Nc3cc([C@H]4CC[C@@H](OC(=O)NC(C)(C)C)C4)[nH]n3)cc2CS1(=O)=O [Example 391a]", "discreteLabel": "Criterion met"}
{"compound": "CCCNC(=O)O[C@H]1CC[C@@H](c2cc(Nc3cc4c(cc3F)S(=O)(=O)NC4)n[nH]2)C1 (single isomer, unassigned) [Example 42b]", "discreteLabel": "Criterion not met"}
{"compound": "CC(C)NC(=O)O[C@H]1CC[C@@H](c2cc(Nc3ccc4c(c3F)CN(CCO)S4(=O)=O)n[nH]2)C1 (single isomer, unassigned) [Example 125a]", "discreteLabel": "Criterion not met"}
{"compound": "CC(C)NC(=O)O[C@H]1CC[C@@H](c2cc(Nc3ccc4c(c3F)CS(=O)(=O)N4C3CC3)n[nH]2)C1 (single isomer, unassigned) [Example 275a]", "discreteLabel": "Criterion not met"}
{"compound": "CC(C)NC(=O)O[C@H]1CC[C@@H](c2cc(Nc3ccc4c(c3)CS(=O)(=O)N4CCC3CCOCC3)n[nH]2)C1 (relative stereo) [Example 217]", "discreteLabel": "Criterion not met"}
{"compound": "CC(C)NC(=O)O[C@H]1CC[C@@H](c2cc(Nc3ccc4c(c3F)CN(C3CCN(Cc5ccccc5)C3)S4(=O)=O)n[nH]2)C1 (relative stereo) [Example 87]", "discreteLabel": "Criterion not met"}

Prompt line: Identify whether the compound C[C@@H](CO)NC(=O)O[C@H]1CC[C@@H](c2cc(Nc3ccc4c(c3F)CNS4(=O)=O)n[nH]2)C1 (single isomer, unassigned) [Example 328b] records IC50 below 0.07 µM.
Response line: Criterion not met

Prompt line: Identify whether the compound CC(C)NC(=O)O[C@H]1CC[C@@H](c2cc(Nc3ccc4c(c3F)C(C)NS4(=O)=O)n[nH]2)C1 (single isomer, unassigned) [Example 51a] records IC50 below 0.07 µM.
Response line: Criterion not met

Prompt line: Identify whether the compound CC(C)NC(=O)O[C@@H]1CC[C@H](c2cc(Nc3ccc4c(c3)N(C(=O)OC(C)(C)C)CS4(=O)=O)n[nH]2)C1 (relative stereo) [Example 319] records IC50 below 0.07 µM.
Response line: Criterion not met

Prompt line: Identify whether the compound CC(C)NC(=O)O[C@H]1CC[C@@H](c2cc(Nc3ccc4c(c3F)CN(C3CN(S(C)(=O)=O)C3)S4(=O)=O)n[nH]2)C1 (relative stereo) [Example 89] records IC50 below 0.07 µM.
Response line: Criterion not met

Prompt line: Identify whether the compound CC[C@H](C)NC(=O)O[C@H]1CC[C@@H](c2cc(Nc3ccc4c(c3)NS(=O)(=O)C4)n[nH]2)C1 (relative stereo) [Example 306] records IC50 below 0.07 µM.
Response line: Criterion met

Prompt line: Identify whether the compound CCCNC(=O)O[C@H]1CC[C@@H](c2cc(Nc3ccc4c(c3)CS(=O)(=O)N4)n[nH]2)C1 (single isomer, unassigned) [Example 195a] records IC50 below 0.07 µM.
Response line: Criterion not met

Prompt line: Identify whether the compound CC(C)NC(=O)O[C@H]1CC[C@@H](c2cc(Nc3ccc4c(c3)CS(=O)(=O)N4CCN3CCOCC3)n[nH]2)C1 (relative stereo) [Example 212] records IC50 below 0.07 µM.
Response line: Criterion met

Prompt line: Identify whether the compound COCC(C)(C)NC(=O)O[C@H]1CC[C@@H](c2cc(Nc3ccc4c(c3F)CS(=O)(=O)N4C3CC3)n[nH]2)C1 (relative stereo) [Example 401] records IC50 below 0.07 µM.
Response line: Criterion not met

Prompt line: Identify whether the compound CC(C)NC(=O)O[C@H]1CC[C@@H](c2cc(Nc3ccc4c(c3)C(C)S(=O)(=O)N4)n[nH]2)C1 (single isomer, unassigned) [Example 384c] records IC50 below 0.07 µM.
Response line: Criterion met

Prompt line: Identify whether the compound CCCNC(=O)O[C@H]1CC[C@@H](c2cc(Nc3ccc4c(c3)CS(=O)(=O)N4C)n[nH]2)C1 (relative stereo) [Example 221] records IC50 below 0.07 µM.
Response line: Criterion met

Prompt line: Identify whether the compound CC(C)NC(=O)O[C@H]1CC[C@@H](c2cc(Nc3cc4c(cc3F)N(CCO)S(=O)(=O)C4)n[nH]2)C1 (single isomer, unassigned) [Example 296a] records IC50 below 0.07 µM.
Response line: Criterion not met

Prompt line: Identify whether the compound CC(C)NC(=O)O[C@H]1C[C@@H](c2cc(Nc3cc4c(cc3F)S(=O)(=O)NC4)n[nH]2)C1 [Example 397] records IC50 below 0.07 µM.
Response line: Criterion not met

Prompt line: Identify whether the compound COc1cc2c(cc1Nc1cc([C@@H]3CC[C@H](OC(=O)NC(C)C)C3)[nH]n1)C(C)(C)NS2(=O)=O (relative stereo) [Example 23] records IC50 below 0.07 µM.
Response line: Criterion not met

Prompt line: Identify whether the compound CN1c2ccc(Nc3cc([C@@H]4CC[C@H](OC(=O)NC5CCC56CC6)C4)[nH]n3)cc2CS1(=O)=O (relative stereo) [Example 196] records IC50 below 0.07 µM.
Response line: Criterion met

Prompt line: Identify whether the compound CC1(NC(=O)O[C@H]2CC[C@@H](c3cc(Nc4cc5c(cc4F)S(=O)(=O)NC5)n[nH]3)C2)CC1 (single isomer, unassigned) [Example 44a] records IC50 below 0.07 µM.
Response line: Criterion not met
